B1: library; numbered along this chain (parent)
chain: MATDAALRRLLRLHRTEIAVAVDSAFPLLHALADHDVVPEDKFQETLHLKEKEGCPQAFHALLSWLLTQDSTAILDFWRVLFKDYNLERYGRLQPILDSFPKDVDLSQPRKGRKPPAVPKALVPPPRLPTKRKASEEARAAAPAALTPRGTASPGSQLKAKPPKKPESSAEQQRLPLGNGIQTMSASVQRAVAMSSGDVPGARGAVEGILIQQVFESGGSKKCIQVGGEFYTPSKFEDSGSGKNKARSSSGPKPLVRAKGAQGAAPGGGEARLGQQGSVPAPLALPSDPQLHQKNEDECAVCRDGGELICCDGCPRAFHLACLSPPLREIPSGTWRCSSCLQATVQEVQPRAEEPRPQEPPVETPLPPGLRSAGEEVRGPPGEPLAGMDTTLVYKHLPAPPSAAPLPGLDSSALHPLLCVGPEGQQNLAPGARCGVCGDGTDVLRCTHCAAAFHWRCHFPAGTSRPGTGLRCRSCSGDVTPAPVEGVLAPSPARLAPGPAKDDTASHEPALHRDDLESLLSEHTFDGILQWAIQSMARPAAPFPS

Variants of: B1
Assay: AIRE transcriptional activation functional score (insulin promoter-GFP; nonsense median 0, synonymous median 1) (normalised score); higher = higher AIRE activity (more reporter activation)
Details: with insulin promoter-GFP reporter in HEK293
Kindly return Fulfilled if reported AIRE transcriptional activation functional score is no lower than 0.9; return Not fulfilled if it is lower.

Reported AIRE transcriptional activation functional score reaches at least 0.9 for C311Q ?
Not fulfilled

Reported AIRE transcriptional activation functional score reaches at least 0.9 for L75C ?
Not fulfilled

Reported AIRE transcriptional activation functional score reaches at least 0.9 for V256A ?
Fulfilled

Reported AIRE transcriptional activation functional score reaches at least 0.9 for V436I ?
Fulfilled

Reported AIRE transcriptional activation functional score reaches at least 0.9 for E237P ?
Not fulfilled

Reported AIRE transcriptional activation functional score reaches at least 0.9 for A246H ?
Fulfilled

Reported AIRE transcriptional activation functional score reaches at least 0.9 for G180R ?
Fulfilled

Reported AIRE transcriptional activation functional score reaches at least 0.9 for S338N ?
Fulfilled

Reported AIRE transcriptional activation functional score reaches at least 0.9 for S99I ?
Not fulfilled
